System: T-47D breast
Test: NCI tumour cell line growth inhibition, 48 h

{"compound": "SC1CCCN(Cc2ccccc2)C1 (configuration not stated)", "TGI": "94.1 µM"}
{"compound": "COc1cc(-c2nn(-c3cccc(NC(=O)c4ccc(N5CCOCC5)c(C(F)(F)F)c4)c3)cc2-c2ccncc2)ccc1Cl", "TGI": "> 28.9 µM"}
{"compound": "C=CCSSCC=C", "TGI": "> 100 µM"}
{"compound": "CCCCCCCCCCCCCCCCOP(=O)(O)OP(=O)(O)OCC1OC(n2ccc(N)nc2=O)C(O)C1O (configuration not stated)", "TGI": "> 100 µM"}
{"compound": "Cn1c2c3ccc(Cl)cc3nc-2c(Cl)c2ccccc21", "TGI": "> 100 µM"}
{"compound": "c1ccc(C(=NNc2cnc3ccccc3n2)c2ccccn2)cc1", "TGI": "33.5 µM"}
{"compound": "COc1ccc(-n2c(N)c(C#N)c(C#N)c2-c2ccccc2)cc1", "TGI": "> 100 µM"}
{"compound": "C1=NCCNCCNCCN=Cc2ccccc2OCc2cccc(n2)COc2ccccc21", "TGI": "> 100 µM"}
{"compound": "COC(=O)/C=C\\C(C#N)(C#N)N=Cc1ccc(Br)s1", "TGI": "> 30.6 µM"}
{"compound": "Cn1/c(=N\\N=C(\\CNCCO)[C@@H](O)[C@@H]2OC(c3ccccc3)OC[C@H]2O)sc2ccccc21 (some centres not stated)", "TGI": "47 µM"}
{"compound": "Br/C(=N\\Nc1nn[nH]n1)c1ccncc1", "TGI": "> 100 µM"}
{"compound": "CN1CCN(CCCCN2c3ccccc3Sc3cc(N=[N+]=[N-])ccc32)CC1", "TGI": "31.9 µM"}
{"compound": "CCCCCCCCCCCCCCCCOCC(CCl)OP(=O)(O)OP(=O)(O)OCC1OC(n2ccc(N)nc2=O)C(O)C1O (configuration not stated)", "TGI": "> 100 µM"}
{"compound": "Nc1ncnc2c1ncn2[C@H]1CC[C@@H](NO)C1", "TGI": "> 100 µM"}
{"compound": "Cc1nc2ccccc2c(=O)n1NC(=S)Nc1ccc(Cl)cc1[N+](=O)[O-]", "TGI": "> 100 µM"}
{"compound": "COc1ccc2nc3ccccc3c(NCCCN(C)CCCl)c2c1", "TGI": "0.467 µM"}
{"compound": "CN1CC(CNC(=O)OCc2ccccc2)CC2c3cccc4c3c(cn4C)CC21 (configuration not stated)", "TGI": "4.67 µM"}
{"compound": "O=c1c2ccccc2c2ccccc2c(=O)n1Cc1ccc2c(c1)OCO2", "TGI": "> 100 µM"}
{"compound": "CCCCCCc1nc2nc(Cl)c(Cl)nc2[nH]1", "TGI": "> 100 µM"}
{"compound": "C=CCNS(=O)(=O)c1ncnc2nc[nH]c12", "TGI": "> 100 µM"}
{"compound": "O=C(Nc1ccc(Cl)c(Cl)c1)N1N=C2c3ccccc3CCC2C1c1ccc(Cl)cc1 (configuration not stated)", "TGI": "> 100 µM"}
{"compound": "O=C(O)[C@@H]1NC[C@H]2C(Br)=NO[C@H]21", "TGI": "> 100 µM"}
{"compound": "O=C1C(=Cc2cccc(O)c2)N=C(c2ccccc2)N1n1c(-c2ccccc2)nc2ccccc2c1=O", "TGI": "91.7 µM"}
{"compound": "S=c1nc(Cl)cc2[nH]c(Cl)cn12", "TGI": "> 100 µM"}
{"compound": "CCOC(=O)C(C)(C)C(O)C(C)C (configuration not stated)", "TGI": "> 100 µM"}
{"compound": "NS(=O)(=O)c1ccc(Nc2c3ccccc3nc3c(C(=O)NCCO)cccc23)cc1", "TGI": "0.169 µM"}
{"compound": "CC(=O)[C@@]1(O)[C@H](C)C[C@H]2[C@@H]3C=C(C)C4=Cc5c(cnn5-c5ccccc5)C[C@]4(C)[C@H]3[C@@H](O)C[C@@]21C", "TGI": "10.3 µM"}
{"compound": "COc1cccc(Cc2cc(=O)c3ccc(C)nc3[nH]2)c1", "TGI": "> 100 µM"}
{"compound": "C/C(=N\\NC(=S)N(C)CCN(C)C(=S)N/N=C(\\C)c1ccccn1)c1ccccn1", "TGI": "19 µM"}
{"compound": "CC(=O)O[C@H]1C(=O)[C@@]2(C)[C@H]([C@H](OC(=O)c3ccccc3)[C@]3(O)C[C@H](OC(=O)[C@H](O)[C@@H](NC(=O)C(C)(C)C)c4ccccc4)C(C)=C1C3(C)C)[C@]1(OC(C)=O)CO[C@@H]1C[C@@H]2O", "TGI": "> 10 µM"}
{"compound": "COC1O[C@H]2[C@H]3[C@@H]1[C@@H](OS(=O)(=O)c1ccc(C)cc1)C(=O)N3C[C@H]2O (some centres not stated)", "TGI": "> 100 µM"}
{"compound": "CN(C)CCCNC(=O)c1cncnc1Nc1ccc(OCc2cccc(F)c2)c(Cl)c1", "TGI": "4.28 µM"}
{"compound": "O=C1C(Cl)C(c2cc3cc(Br)ccc3nc2Cl)N1c1ccc(Cl)cc1 (configuration not stated)", "TGI": "23.8 µM"}
{"compound": "Nc1c(C(=O)c2ccc(CCCN3CCOCC3)cc2)cnn1-c1ccc(F)cc1", "TGI": "> 25 µM"}
{"compound": "COc1ccc(-c2cc(-c3ccc(O)cc3)nc3n[nH]c(N)c23)cc1", "TGI": "83.5 µM"}
{"compound": "COCn1c(C)c(C)c2c(=O)oc(N(C)C)nc21", "TGI": "> 100 µM"}
{"compound": "O=C1OC(c2ccccc2)(c2cc(Br)c(O)c(Br)c2)c2ccccc21 (configuration not stated)", "TGI": "> 100 µM"}
